Recorded GLP1 secretion stimulation for the following compounds
Experiment: glucagon-like peptide 1 release enhancers, primary assay, NCI-H716 cell line, NPC library (AID 1117341); also: reference of the scale not given here
Conditions: NCI-H716 cells, at 10 µM, hits give high values
Output spec: scalar in %, unitless text.

Compound	Test Value
NS(=O)(=O)c1cc2c(cc1Cl)NC=NS2(=O)=O	1.5
O[C@@H](c1cc(C(F)(F)F)nc2c(C(F)(F)F)cccc12)[C@H]1CCCCN1	-1.8
NNCCc1ccccc1	-0.4
Cc1ccc(/C=N/n2c(-c3ccccc3)csc2=S)cc1	0.3
CN(C)C(=S)SC(=S)N(C)C	4.1

# evaluate next
Exam item: Item "NS(=O)(=O)c1cc(-c2nn[nH]n2)c(NCc2cccs2)cc1Cl" has what recorded GLP1 secretion stimulation?
Marked response: -0.2

Hey, just so you know, these numbers are from PubChem BioAssay.
